Target: MyD88^TIR (Homo sapiens, UniProt Q99836)
Construct: MyD88 (residues 148–296); 6xHis; made in house; host or cells: E. coli BL21 (DE3)
Sequence (Q99836 148-296): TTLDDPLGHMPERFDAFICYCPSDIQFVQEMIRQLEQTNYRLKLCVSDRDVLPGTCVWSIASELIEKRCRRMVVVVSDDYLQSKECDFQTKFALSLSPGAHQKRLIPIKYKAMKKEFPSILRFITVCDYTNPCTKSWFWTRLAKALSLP
Assay: T‐Surf phage library (P8 and P3) selection against MyD88^TIR, four rounds, NGS read counts
Type: binding
Details: P8 library, 4R selection against MyD88, rank before grouping
Use yes when the recorded P8_MyD88 Rank (before) is no lower than 3000; use no when it is lower.

Request: Hello, I need to know if SSWWALEELAHIIE has measured P8_MyD88 Rank (before) not below 3000. Thanks!
Response: yes

Request: Check WALDELLQILHARELLQIA too.
Response: no

Request: Item: YASYDDNDYYWVTHVLLSR
Response: no

Request: Then this sequence: DPQDLDRSYERLVSLC
Response: no

Request: Now try DPQDLGCFYERLVSLF .
Response: no

Request: Please give the result for YLLLSEFHSELALRPL too.
Response: no

Request: Now the same for DPQGHAWTYERHLSVF
Response: no

Request: Try this sequence too: SWAVDELLQILHARELF
Response: yes

Request: YLRADDIWVWEKLLYA
Response: no

Request: Continue with YELDFSHFWLFEARGDA
Response: no

Request: Same read-out for DPQDLHGIYERLVILF ?
Response: no

Request: What about WTLNELQTILNILDIG ?
Response: no

Request: Record: DPQVLDWYYERLVRLF
Response: no

Request: Next record, please: DSLFWDRLLPNLEGPAG
Response: yes

Request: Next record, please: WDYASNVELFWGRMNY
Response: no

Request: // same read-out, input: WALNELLEILYANETM
Response: no

Request: Would you kindly repeat that for WDFSGNMKQALDRLCY ?
Response: no

Request: Proceed to DPQVLEWFYERLVSMF
Response: no

Request: Moving on to YAASPWWFYERVEILG
Response: no

Request: One more sequence: DPQDLDCFDERLGSRV
Response: no

Request: One more sequence: IDDDHLYAALVQAGIL
Response: yes

Request: Next sequence: NYGSSSWALEELAHIIE
Response: yes

Request: Proceed to DPQDLARSYERLVRLF
Response: no

Request: Then QQISLVQLKVLEESHV ?
Response: yes

Request: And the next one, IDDEHLTYLGRLLLSR ?
Response: yes

Request: # iterate: LVYHWIDWVYFVGIED
Response: yes
